- Target Or Test System: T1, human PD-1 extracellular domain fused with mouse Fc (PD-1-mFc) (human, UniProt Q15116 25-170)
- T1 construct: extracellular domain; not used because of the label; also called hPD-1-mFc; human PD-1-mouse Fc fusion protein
- T1 sequence (Q15116 25-170): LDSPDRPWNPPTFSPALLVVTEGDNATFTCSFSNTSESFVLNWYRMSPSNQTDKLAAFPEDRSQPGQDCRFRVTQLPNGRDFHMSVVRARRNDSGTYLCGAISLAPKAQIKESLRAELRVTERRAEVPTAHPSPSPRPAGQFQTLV
- Procedure Details: blockage ELISA, competitor PDL-1-mFc-biotin (summary table; IC50 in ng/ml in Table 2)
Test Readout: IC50 (µg/mL)
Response body: numeric value in µg/mL, unit text excluded.

Please review the entries below; each comes with its answer.
# Binder, Units Of Measure, Experimental Result
data = [
    ("10D1 murine anti-PD-1 antibody (antibody, V domains shown, Purified hybridoma antibody; also called 10D1-mIgG1) VH: EVKLVESGGGLVKPGGSLKLSCAASGFTFSSYGMSWLRQTPEKRLEWVATMSGGGRDIYYPDSMKGRFTISRDNAKNNLYLQMSSLRSEDTALYYCARQYYDDWFAYWGQGTLVTVSA VL: DIVLTQTPATLSVTPGDSVSLSCRASQSISNNLHWYQQKSHESPRLLIKYASQSISGIPSRFSGSGSGTDFTLNINSVETEDFGMYFCQQSNSWPLTFGAGTKLELKR", "µg/mL", 1.41),
    ("14A6 murine anti-PD-1 antibody (antibody, V domains shown, Purified hybridoma antibody; also called 14A6-mIgG1) VH: DVQLQESGPGLVKPSQSLSLTCTVTGYSITSDYAWNWIRQFPGNQLEWMAYISYSGYTSYNPSLKSRISITRDTSRNQFFLQLNSVTTEDTATYYCARSLDYDYGTMDYWGQGTSVTVSS VL: QIVLSQSPAILSASPGEKVTMTCRANSSVSSMHWYQQKPGSSPEPWIYAISNLAFGVPARFSGSGSGTSYSLTISRVEAEDAATYFCQQWNSRPPTFGGGTKLEIKR", "µg/mL", 0.923),
    ("15H5 murine anti-PD-1 antibody (antibody, V domains shown, Purified hybridoma antibody; also called 15H5-mIgG1) VH: EVKLVESGGGLVKPGGSLKLSCAASGFAFRSYDMSWVRQTPEKILEWVATISGGGSYTYYQDSVKGRFTISRDNARNTLYLQMSSLRSEDTALYYCASPYGPYFDYWGQGTTLTVSS VL: DIQMNQSPSSLSASLGDTITITCHASQSINVWLSWYQQKPGNIPKLLIYRASNLHTGVPSRFSGSGSGTGFTLTISSLQPDDIATYYCQQGQSYPWTFGGGTKLEIKR", "µg/mL", 0.873),
]

Per the record, 6E1 murine anti-PD-1 antibody (antibody, V domains shown, Purified hybridoma antibody; also called 6E1-mIgG1) VH: EVKLVESGGGLVKPGGSLKLSCAASGFTFSSYGMSWVRQTPEKRLEWVATISGGGRDTYYLDSVKGRFTISRDNAKNNLYLQMSSLRSEDTALYYCVRQYYDDWFAYWGQGTLVSNSA VL: DIVLTQTPATLSVTPGDSVSLSCRASQSLSNNLHWYQQKSHESPRLLIKYASQSISGIPSRFSGSGSGTDFTLSINSVETEDFGMYFCQQSNSWPLTFGAGTKLEMKR has IC50 of 0.961
